Provenance of the data: ChEMBL document CHEMBL2203219

# ASSAY_PROCEDURE: in vivo
# CONDITIONS: dog
MEASUREMENT_LABEL: clearance

The measured clearance associated with Cn1cc(C(=O)NC[C@@H](O)CN2CCC(Oc3ccc(Cl)c(Cl)c3)CC2)c(C(F)(F)F)cc1=O reads 8 mL/min/kg

---

# ASSAY_PROCEDURE: in vitro
# CONDITIONS: human, microsomes
A collection of compounds and their measured microsomal CLint

SMI | microsomal CLint
Cc1cc(Cl)ccc1OC1CCN(C[C@H](O)CNC(=O)c2c[nH]nc2C(F)(F)F)CC1 | < 3 µL/min/mg
O=C(NC[C@@H](O)CN1CCC(Oc2ccc(Cl)c(Cl)c2)CC1)c1c[nH]c(=O)c2cc(S(=O)(=O)N3CCC3)ccc12 | < 3 µL/min/mg

The compound listed as Cn1cc(C(=O)NC[C@@H](O)CN2CCC(Oc3ccc(Cl)c(Cl)c3)CC2)c(C(F)(F)F)cc1=O has a reported microsomal CLint of 5 µL/min/mg
